# TEST_METHOD_NOTES: Oral bioavailability in Wistar Han rat
# Format: ADME, organism-based
# PROTOCOL_CONDITIONS: in vivo
Recorded bioavailability, one value per entry.
Field format: number, assumed %, no unit text.

Find the recorded bioavailability belonging to CCn1c(-c2ccc(C(F)(F)F)nc2)nc2c(N[C@H]3CCN(C(=O)C4CC4)C3)ncnc21 and report it.
36

Quick one: bioavailability of CCC(=O)N1CC[C@H](Nc2ncnc3c2nc(-c2cnc(C)nc2)n3CC)C1 ?
61

# lookup: bioavailability of CCn1c(-c2cnc(C)nc2)nc2c(O[C@H]3CCN(C(=O)N4CC(OC)C4)C3)ncnc21
75

Entry CCn1c(-c2cnc(C)nc2)nc2c(N[C@H]3CCN(C(=O)C4CCOCC4)C3)ncnc21 has what bioavailability?
18

Look up bioavailability: CCn1c(-c2cnc(C)nc2)nc2c(O[C@H]3CCN(C(=O)C4CC4)C3)ncnc21
64

The reported measurements were obtained from ChEMBL document CHEMBL4834420.
